B1: ATGL (PNPLA2, patatin-like phospholipase domain-containing protein 2), human, full length / perilipin-5, mouse (mPlin5) (parent)
chain 1: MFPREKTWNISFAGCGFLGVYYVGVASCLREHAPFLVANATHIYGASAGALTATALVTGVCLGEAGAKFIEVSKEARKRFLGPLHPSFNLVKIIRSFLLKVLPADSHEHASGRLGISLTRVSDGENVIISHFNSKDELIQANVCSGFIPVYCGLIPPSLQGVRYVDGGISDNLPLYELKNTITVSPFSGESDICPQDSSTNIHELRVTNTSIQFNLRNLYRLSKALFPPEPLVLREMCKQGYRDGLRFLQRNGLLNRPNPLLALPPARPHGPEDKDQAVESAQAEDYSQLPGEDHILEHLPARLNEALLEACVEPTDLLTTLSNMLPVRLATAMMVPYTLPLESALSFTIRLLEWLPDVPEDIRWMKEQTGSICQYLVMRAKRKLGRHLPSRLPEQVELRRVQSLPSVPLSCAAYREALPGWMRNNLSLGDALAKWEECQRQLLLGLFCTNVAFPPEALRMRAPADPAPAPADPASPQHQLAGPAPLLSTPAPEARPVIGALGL
chain 2: MDQRGEDTTLAPHSRMSGDQTAQDPGSSLGELDQQNVVNRVVALPLVKATCTAVSSAYNSAKDRHPLLGSACRLAEHCVCSVTTCALDHAQPLLEHLQPQLATVNDLACRGLDKLEEKLPFLQQPSDMVVTSAKDTVAKSVTGMVDLAQRGRRWSGELRRSMSQAMDMVLGKSEKLVDRFLPMTEAELAVLAAEAEGPEVGTVEEQRQQQGYFVRLGSLSARLRHLAYEHSLGKLRQSKHRTQEMLAQLQETLELIQHMQRGASPSPTFHPPKTQELWGSWSPCLENGRSHSEVELETLALSRSLTLELQNAVDALAGCVRGLPPSAQAKVAEVQRSVDALQATFADAHCLGDVAPTALAEGRGSVARAHACVDEFLDLVLRAMPLPWLVGPFAPILVEQSEPLINLATCVDEVVGDPDPRWAHMDWPAQKRAWEAESADPGGQEAEPPRGQGKHTMMPELDF

variants of: B1; experiment: LUMIER: Protein A-ATGL variant and firefly luciferase-partner co-expressed in HEK293T, lysates immunoprecipitated on IgG-coated plates, co-precipitated partner measured as luciferase luminescence; conditions: with perilipin-5, mouse (mPlin5), transient co-transfection, IgG-coated LUMITRAC plates, 2 h at 4 °C, three PBS washes, Bright-Glo luciferase reagent, triplicates per assay, two …, parent: 0.46, not graded, scale: log2 fold change of co-immunoprecipitated luminescence relative to wild-type ATGL within each experiment
Category scheme (screen value): bin A (below -0.5), bin B (-0.5 to below -0.2), bin C (-0.2 or more)

>  <Mutation name>
chain 1 Q140K

>  <Classification>
bin B

$$$$
>  <Mutation name>
chain 1 L62K

>  <Classification>
bin C

$$$$
>  <Mutation name>
chain 1 A104E

>  <Classification>
bin B

$$$$
>  <Mutation name>
chain 1 P86K

>  <Classification>
bin A

$$$$
>  <Mutation name>
chain 1 L178A

>  <Classification>
bin B

$$$$
>  <Mutation name>
chain 1 S106K

>  <Classification>
bin A

$$$$
>  <Mutation name>
chain 1 P258L

>  <Classification>
bin A

$$$$
>  <Mutation name>
chain 1 V127L

>  <Classification>
bin C

$$$$
>  <Mutation name>
chain 1 F35E

>  <Classification>
bin C

$$$$
>  <Mutation name>
chain 1 Q396A

>  <Classification>
bin A

$$$$
>  <Mutation name>
chain 1 G153K

>  <Classification>
bin A

$$$$
>  <Mutation name>
chain 1 E125L

>  <Classification>
bin B

$$$$
>  <Mutation name>
chain 1 V328A

>  <Classification>
bin A

$$$$
>  <Mutation name>
chain 1 R113L

>  <Classification>
bin C

$$$$
>  <Mutation name>
chain 1 H109E

>  <Classification>
bin B

$$$$
>  <Mutation name>
chain 1 R95L

>  <Classification>
bin B

$$$$
>  <Mutation name>
chain 1 E368A

>  <Classification>
bin C

$$$$
>  <Mutation name>
chain 1 I70A

>  <Classification>
bin A

$$$$
>  <Mutation name>
chain 1 L102K

>  <Classification>
bin A

$$$$
>  <Mutation name>
chain 1 N39E

>  <Classification>
bin B

$$$$
>  <Mutation name>
chain 1 R95K

>  <Classification>
bin B

$$$$
>  <Mutation name>
chain 1 N180L

>  <Classification>
bin A

$$$$
>  <Mutation name>
chain 1 S87A

>  <Classification>
bin B

$$$$
>  <Mutation name>
chain 1 P156K

>  <Classification>
bin A

$$$$
>  <Mutation name>
chain 1 L62A

>  <Classification>
bin C

$$$$
>  <Mutation name>
chain 1 G59L

>  <Classification>
bin C

$$$$
>  <Mutation name>
chain 1 G16K

>  <Classification>
bin C

$$$$
>  <Mutation name>
chain 1 R163K

>  <Classification>
bin C

$$$$
>  <Mutation name>
chain 1 R351L

>  <Classification>
bin B

$$$$
